Listed below: minimal inhibitory concentration (MIC), HFRD values for each entry.
- System: Haemophilus influenzae RD
- protocol notes: MIC, standard broth micro-dilution assay, HFRD
- Type: cell-based

# example entries with known answers
CC1OC(OC2c3ccc(c(Cl)c3)Oc3cc4cc(c3OC3OC(CO)C(O)C(O)C3OC3CC(C)(NCc5ccc(-c6ccccc6)cc5)C(O)C(C)O3)Oc3ccc(cc3Cl)C(O)C(NC(=O)C(Cc3ccc(Cl)cc3)NC(=O)OC(C)(C)C)C(=O)NC(CC(N)=O)C(=O)NC4C(=O)NC3C(=O)NC2C(=O)NC(C(=O)O)c2cc(O)cc(O)c2-c2cc3ccc2O)CC(C)(N)C1O (stereo not drawn) [Example 28]	>64
CC1OC(OC2c3ccc(c(Cl)c3)Oc3cc4cc(c3OC3OC(CO)C(O)C(O)C3OC3CC(C)(NCc5ccc(-c6ccccc6)cc5)C(O)C(C)O3)Oc3ccc(cc3Cl)C(O)C(NC(=O)C3CCCN3C(=O)OC(C)(C)C)C(=O)NC(CC(N)=O)C(=O)NC4C(=O)NC3C(=O)NC2C(=O)NC(C(=O)O)c2cc(O)cc(O)c2-c2cc3ccc2O)CC(C)(N)C1O (stereo not drawn) [Example 29]	>64

For the next question, use this compound.
Identify the reported minimal inhibitory concentration (MIC), HFRD for the following entry. CC(C)CC(N)C(=O)NC1C(=O)NC(CC(N)=O)C(=O)NC2C(=O)NC3C(=O)NC(C(=O)NC(C(=O)O)c4cc(O)cc(O)c4-c4cc3ccc4O)C(OC3CC(C)(N)C(O)C(C)O3)c3ccc(c(Cl)c3)Oc3cc2cc(c3OC2OC(CO)C(O)C(O)C2OC2CC(C)(NCc3ccc(-c4ccccc4)cc3)C(O)C(C)O2)Oc2ccc(cc2Cl)C1O (stereo not drawn) [Example 13]
16

###

- Tested on: Staphylococcus aureus 447
- protocol notes: MIC, standard broth micro-dilution assay, SA 447
- Format: cell-based
# reported minimal inhibitory concentration (MIC), SA 447; entries follow

Recorded minimal inhibitory concentration (MIC), SA 447, per entry:
CC1OC(OC2c3ccc(c(Cl)c3)Oc3cc4cc(c3OC3OC(CO)C(O)C(O)C3OC3CC(C)(NCc5ccc(-c6ccccc6)cc5)C(O)C(C)O3)Oc3ccc(cc3Cl)C(O)C(NC(=O)C(CCCCNC(=O)OC(C)(C)C)NC(=O)OC(C)(C)C)C(=O)NC(CC(N)=O)C(=O)NC4C(=O)NC3C(=O)NC2C(=O)NC(C(=O)O)c2cc(O)cc(O)c2-c2cc3ccc2O)CC(C)(N)C1O (stereo not drawn) [Example 30]	2
CC1OC(OC2c3ccc(c(Cl)c3)Oc3cc4cc(c3OC3OC(CO)C(O)C(O)C3OC3CC(C)(NCc5ccc(-c6ccccc6)cc5)C(O)C(C)O3)Oc3ccc(cc3Cl)C(O)C(NC(=O)C3CCCN3C(=O)OC(C)(C)C)C(=O)NC(CC(N)=O)C(=O)NC4C(=O)NC3C(=O)NC2C(=O)NC(C(=O)O)c2cc(O)cc(O)c2-c2cc3ccc2O)CC(C)(N)C1O (stereo not drawn) [Example 26]	1

Please examine the following record next.
Read the entry CC1OC(OC2c3ccc(c(Cl)c3)Oc3cc4cc(c3OC3OC(CO)C(O)C(O)C3OC3CC(C)(NCc5ccc(-c6ccccc6)cc5)C(O)C(C)O3)Oc3ccc(cc3Cl)C(O)C(NC(=O)C3CCCN3C(=O)OC(C)(C)C)C(=O)NC(CC(N)=O)C(=O)NC4C(=O)NC3C(=O)NC2C(=O)NC(C(=O)O)c2cc(O)cc(O)c2-c2cc3ccc2O)CC(C)(N)C1O (stereo not drawn) [Example 29] and write its reported minimal inhibitory concentration (MIC), SA 447.
0.5

###

- System: Resistant Enterococcus faecium and faecalis
- protocol notes: MIC, standard broth micro-dilution assay, Resistant
- Assay type: cell-based
- condition context: geometric mean of 4-6 isolates
measurement kind: minimal inhibitory concentration (MIC), Resistant
The answer should be written as a number, with no unit following it.

CC1OC(OC2c3ccc(c(Cl)c3)Oc3cc4cc(c3OC3OC(CO)C(O)C(O)C3OC3CC(C)(NCc5ccc(-c6ccccc6)cc5)C(O)C(C)O3)Oc3ccc(cc3Cl)C(O)C(NC(=O)C(Cc3ccc(Cl)cc3)NC(=O)OC(C)(C)C)C(=O)NC(CC(N)=O)C(=O)NC4C(=O)NC3C(=O)NC2C(=O)NC(C(=O)O)c2cc(O)cc(O)c2-c2cc3ccc2O)CC(C)(N)C1O (stereo not drawn) [Example 21]	11

# ---- query compound ----
Using the record for CC1OC(OC2c3ccc(c(Cl)c3)Oc3cc4cc(c3OC3OC(CO)C(O)C(O)C3OC3CC(C)(NCc5ccc(-c6ccccc6)cc5)C(O)C(C)O3)Oc3ccc(cc3Cl)C(O)C(NC(=O)C3CCCN3C(=O)OC(C)(C)C)C(=O)NC(CC(N)=O)C(=O)NC4C(=O)NC3C(=O)NC2C(=O)NC(C(=O)O)c2cc(O)cc(O)c2-c2cc3ccc2O)CC(C)(N)C1O (stereo not drawn) [Example 29] , state its measured minimal inhibitory concentration (MIC), Resistant.
27

###

- System: Resistant Enterococcus faecium and faecalis
- protocol notes: MIC, standard broth micro-dilution assay, Resistant
- Type: cell-based
- condition context: geometric mean of 4-6 isolates
measurement kind: minimal inhibitory concentration (MIC), Resistant
Provide a numeric answer; units are not to be included.

CC1OC(OC2c3ccc(c(Cl)c3)Oc3cc4cc(c3OC3OC(CO)C(O)C(O)C3OC3CC(C)(NCc5ccc(-c6ccccc6)cc5)C(O)C(C)O3)Oc3ccc(cc3Cl)C(O)C(NC(=O)C(N)Cc3ccc(Cl)cc3)C(=O)NC(CC(N)=O)C(=O)NC4C(=O)NC3C(=O)NC2C(=O)NC(C(=O)O)c2cc(O)cc(O)c2-c2cc3ccc2O)CC(C)(N)C1O (stereo not shown) [Example 33]	27

System Resistant Enterococcus faecium and faecalis. Read-out minimal inhibitory concentration (MIC), Resistant. Item CC1OC(OC2c3ccc(c(Cl)c3)Oc3cc4cc(c3OC3OC(CO)C(O)C(O)C3OC3CC(C)(NCc5ccc(-c6ccccc6)cc5)C(O)C(C)O3)Oc3ccc(cc3Cl)C(O)C(NC(=O)C3CCCN3C(=O)OC(C)(C)C)C(=O)NC(CC(N)=O)C(=O)NC4C(=O)NC3C(=O)NC2C(=O)NC(C(=O)O)c2cc(O)cc(O)c2-c2cc3ccc2O)CC(C)(N)C1O (stereo not shown) [Example 26] . Report value.
23

Return reported minimal inhibitory concentration (MIC), Resistant for target or system Resistant Enterococcus faecium and faecalis, item CC1OC(OC2c3ccc(c(Cl)c3)Oc3cc4cc(c3OC3OC(CO)C(O)C(O)C3OC3CC(C)(NCc5ccc(-c6ccccc6)cc5)C(O)C(C)O3)Oc3ccc(cc3Cl)C(O)C(NC(=O)C(Cc3c[nH]c5ccccc35)NC(=O)OC(C)(C)C)C(=O)NC(CC(N)=O)C(=O)NC4C(=O)NC3C(=O)NC2C(=O)NC(C(=O)O)c2cc(O)cc(O)c2-c2cc3ccc2O)CC(C)(N)C1O (stereo not shown) [Example 25] .
27

Would you please give the reported minimal inhibitory concentration (MIC), Resistant of CC1OC(OC2c3ccc(c(Cl)c3)Oc3cc4cc(c3OC3OC(CO)C(O)C(O)C3OC3CC(C)(NCc5ccc(-c6ccc(Cl)cc6)cc5)C(O)C(C)O3)Oc3ccc(cc3Cl)C(O)C(NC(=O)CCCCCCCc3ccccc3)C(=O)NC(CC(N)=O)C(=O)NC4C(=O)NC3C(=O)NC2C(=O)NC(C(=O)O)c2cc(O)cc(O)c2-c2cc3ccc2O)CC(C)(N)C1O (stereo not shown) [Example 8] with Resistant Enterococcus faecium and faecalis?
4

###

minimal inhibitory concentration (MIC), SA 446 by entry:
- Test system: Staphylococcus aureus 446
- protocol notes: MIC, standard broth micro-dilution assay, SA 446
- Format: cell-based
Please reply with the value in numeric form only.

These recorded examples may help you get a feel for the data.
CC1OC(OC2c3ccc(c(Cl)c3)Oc3cc4cc(c3OC3OC(CO)C(O)C(O)C3OC3CC(C)(NCc5ccc(-c6ccccc6)cc5)C(O)C(C)O3)Oc3ccc(cc3Cl)C(O)C(NC(=O)C3CCCN3C(=O)OC(C)(C)C)C(=O)NC(CC(N)=O)C(=O)NC4C(=O)NC3C(=O)NC2C(=O)NC(C(=O)O)c2cc(O)cc(O)c2-c2cc3ccc2O)CC(C)(N)C1O (stereo not drawn) [Example 26]	2
CC1OC(OC2c3ccc(c(Cl)c3)Oc3cc4cc(c3OC3OC(CO)C(O)C(O)C3OC3CC(C)(NCc5ccc(-c6ccccc6)cc5)C(O)C(C)O3)Oc3ccc(cc3Cl)C(O)C(NC(=O)C(N)Cc3ccc(Cl)cc3)C(=O)NC(CC(N)=O)C(=O)NC4C(=O)NC3C(=O)NC2C(=O)NC(C(=O)O)c2cc(O)cc(O)c2-c2cc3ccc2O)CC(C)(N)C1O (stereo not drawn) [Example 22]	1

Field: next compound
Look up minimal inhibitory concentration (MIC), SA 446 of CC1OC(OC2c3ccc(c(Cl)c3)Oc3cc4cc(c3OC3OC(CO)C(O)C(O)C3OC3CC(C)(NCc5ccc(-c6ccccc6)cc5)C(O)C(C)O3)Oc3ccc(cc3Cl)C(O)C(NC(=O)C(Cc3ccc(Cl)cc3)NC(=O)OC(C)(C)C)C(=O)NC(CC(N)=O)C(=O)NC4C(=O)NC3C(=O)NC2C(=O)NC(C(=O)O)c2cc(O)cc(O)c2-c2cc3ccc2O)CC(C)(N)C1O (stereo not drawn) [Example 21] and report it.
0.5
